# test details: Permeability of the compound at 10 uM measured after 4 hrs by PAMPA based LC-MS analysis
# Type: ADME
# test settings: read-out: permeability
Assignment: determine reported Papp at 4 h, 10 µM for the given compounds.
Give bare numbers, in ×10⁻⁶ cm/s.

structure	readout unit	val
Cc1cc(C(=O)O)cc2c(=O)c3ccccc3oc12	×10⁻⁶ cm/s	18

I have this compound here, O=C(O)c1cc(Cl)c2oc3ccccc3c(=O)c2c1 , and I need its recorded Papp at 4 h, 10 µM. 17

----------
# test details: Protein binding in Sprague-Dawley rat plasma assessed as unbound fraction at 1 uM measured after 4 hrs by equilibrium dialysis assay
# Assay type: ADME, cell-free
value type: fraction unbound at 4 h, 1 µM
One number for each entry.

Study these solved cases before continuing.
structure	fraction unbound at 4 h, 1 µM
O=C(O)c1ccc2nc(-c3cc(Cl)cc(Cl)c3)oc2c1	0.0051
O=C(O)c1cc(Cl)c2oc3ccccc3c(=O)c2c1	0.017

Give its fraction unbound at 4 h, 1 µM value. Item: Cc1cc(C(=O)O)cc2c(=O)c3ccccc3oc12 0.0073

----------
Hi there, I'd appreciate the recorded AUC(0-inf) for every entry that follows.
# test details: AUC infinity in Sprague-Dawley rat at 1 mg/kg, iv measured up to 8 hrs by LC-MS/MS analysis
# Assay type: ADME, organism-based
# Parameters: route intravenous, dose 1 mg/kg, time <=8
# test settings: in vivo
Give bare numbers, in ng·h/mL.

structure	AUC(0-inf) (ng·h/mL)
O=C(O)c1cc(Cl)c2oc3ccccc3c(=O)c2c1	13200

Lab note: next molecule to report on.
Request the reported AUC(0-inf) associated with Cc1cc(C(=O)O)cc2c(=O)c3ccccc3oc12 7520

----------
# test details: Total clearance in Sprague-Dawley rat at 0.1 mg/kg, iv measured up to 8 hrs by LC-MS/MS analysis
# Assay type: ADME, organism-based
# test settings: in vivo
value type: clearance (mL/min/kg)
Answers are plain numbers, in mL/min/kg.

Entry O=C(O)c1ccc2nc(-c3cc(Cl)cc(Cl)c3)oc2c1 has what clearance? 0.383

----------
# test details: Elimination half life in Sprague-Dawley rat at 1 mg/kg, po measured up to 8 hrs by LC-MS/MS analysis
# Format: ADME, organism-based
# test settings: in vivo, read-out: beta t1/2 (converted)
Would you mind telling me the reported half-life of each entry?
Give bare numbers, in h.

structure	readout unit	val
Cc1cc(C(=O)O)cc2c(=O)c3ccccc3oc12	h	4.4

Please turn your attention to the following entry.
Which half-life reading was recorded for the compound O=C(O)c1cc(Cl)c2oc3ccccc3c(=O)c2c1 ? 5

----------
For each of the molecules below, state its half-life.
# test details: Elimination half life in Sprague-Dawley rat at 1 mg/kg, iv measured up to 8 hrs by LC-MS/MS analysis
# Assay type: ADME, organism-based
# test settings: in vivo, read-out: beta t1/2 (converted)
Give bare numbers, in h.

For each of the items listed, what is its half-life?
1. O=C(O)c1cc(Cl)c2oc3ccccc3c(=O)c2c1
2. Cc1cc(C(=O)O)cc2c(=O)c3ccccc3oc12

[1.7, 2.4]

----------
# test details: Cmax in Sprague-Dawley rat at 1 mg/kg, po measured up to 8 hrs by LC-MS/MS analysis
# Format: ADME, organism-based
# Set-up: route oral, dose 1 mg/kg, time <=8
# test settings: in vivo
value type: Cmax (ng/mL)
Numbers only, in ng/mL.

structure	readout unit	Cmax
Cc1cc(C(=O)O)cc2c(=O)c3ccccc3oc12	ng/mL	476

Turning to the following compound.
Item under review: O=C(O)c1cc(Cl)c2oc3ccccc3c(=O)c2c1 . Reported Cmax? 1120
